- Tested on: Staphylococcus aureus
- assayInfo: Bactericidal activity against Staphylococcus aureus 209PJC preincubated for 5 mins before addition of growth medium measured after 40 to 48 hrs
- Type: functional
Quick rule for you: MBC under 6 µg/mL gets condition met, anything else gets condition not met.

Solved entries:
CC(=O)O.CCCCCCCCCNC1=NC(C)(C)NC(NCc2ccccc2)=N1 = condition not met
CC(=O)O.CCCCCCCCCNC1=NC(C)(C)NC(Nc2ccccc2)=N1 = condition not met
CC(=O)O.CCCCCCCCCCNC1=NC(C)(C)NC(NCc2ccccc2)=N1 = condition not met

Enquiry: Answer whether the compound CC(=O)O.CCCCCCCCNC1=NC(C)(C)NC(Nc2ccccc2)=N1 has MBC strictly less than 6 µg/mL
Return: condition not met

Enquiry: Identify whether the compound CC(=O)O.CCCCCCCCNC1=NC(C)(C)NC(NCc2ccc(C(F)(F)F)cc2)=N1 records MBC below 6 µg/mL.
Return: condition not met

Enquiry: I wonder whether CC(=O)O.CCCCCCCCNC1=NC(NCCCCC)=NC(C)(C)N1 has MBC below 6 µg/mL. Can you tell?
Return: condition met

Enquiry: Report whether reported MBC is lower than 6 µg/mL (strictly) for CC(=O)O.CCCCCCCCCCNC1=NC(C)(C)NC(NCc2ccc(OC)cc2)=N1
Return: condition met

Enquiry: API: query returns whether the compound falls strictly under 6 µg/mL in MBC. Query: CCCCCCCCCCNC1=NC(C)(C)NC(NCCc2ccc(OC)cc2)=N1.Cl
Return: condition not met

Enquiry: Input CC(=O)O.CCCCCCCCNC1=NC(C)(C)NC(NCc2ccc(C)cc2)=N1 ; condition: MBC strictly below 6 µg/mL. Does it hold?
Return: condition met

Enquiry: Does the reported MBC of CC(=O)O.CCCCCCCNC1=NC(C)(C)NC(NCc2ccc(C)cc2)=N1 stay below 6 µg/mL?
Return: condition not met

Enquiry: # check: MBC < 6 µg/mL for CCCCCCCCCNC1=NC(C)(C)NC(NCc2ccc(OC)cc2)=N1.CS(=O)(=O)O
Return: condition met
